Catalogue of IC50 readings, one per entry.
# SYSTEM_UNDER_TEST: Methionine aminopeptidase 1 (Homo sapiens, UniProt P53582)
Enter your answer as a number in nM; do not include the unit.

See these solved cases before continuing.
COc1cccc(-c2nc(C)c(Cl)c(NC[C@H](NC(=O)CCCN3CCNCC3)c3ccccc3)n2)n1 :: 20000
Cc1nc(-c2ccc(Cl)cn2)nc(NC[C@H](NCCCCc2ccc(O)cc2)c2ccccc2)c1Cl :: 420
Cc1nc(-c2cc(Cl)ccn2)nc(NC[C@H](NC(=O)CCCN2CCNCC2)c2ccccc2)c1Cl :: 730
Cc1nc(-c2ccc(Cl)cn2)nc(NCC(CCc2ccccc2)c2ccccc2)c1Cl (stereo not given) :: 63

Please find the next compound below.
Exercise: Request - read-out IC50 | tested on Methionine aminopeptidase 1 (Homo sapiens, UniProt P53582) | compound Cc1nc(-c2ccc(Cl)cn2)nc(NCC(CCCCCc2ccccc2)c2ccccc2)c1Cl (racemic)
Key: 2300

###

# SYSTEM_UNDER_TEST: Methionine aminopeptidase 2 (Homo sapiens, UniProt P50579)
# Sequence (P50579 whole entry): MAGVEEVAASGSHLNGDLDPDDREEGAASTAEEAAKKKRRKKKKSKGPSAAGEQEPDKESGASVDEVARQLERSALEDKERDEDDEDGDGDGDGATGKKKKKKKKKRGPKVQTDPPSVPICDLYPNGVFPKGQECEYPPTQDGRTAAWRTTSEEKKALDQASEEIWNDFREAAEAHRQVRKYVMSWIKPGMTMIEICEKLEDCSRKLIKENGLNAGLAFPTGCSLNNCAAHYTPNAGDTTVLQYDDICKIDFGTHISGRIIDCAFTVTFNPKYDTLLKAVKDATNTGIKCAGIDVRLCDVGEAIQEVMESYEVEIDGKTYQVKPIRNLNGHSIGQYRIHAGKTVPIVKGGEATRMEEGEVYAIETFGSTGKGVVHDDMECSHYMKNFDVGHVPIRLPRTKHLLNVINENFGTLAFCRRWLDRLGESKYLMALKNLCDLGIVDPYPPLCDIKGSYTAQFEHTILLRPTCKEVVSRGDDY
METRIC_NAME: pIC50
Reminder that pIC50 is minus the log10 of a molar concentration.

Cc1nc(-c2ccc(Cl)cn2)nc(NC[C@H](NC(=O)Cc2ccccc2)c2ccccc2)c1Cl :: 4.55

Now let's try a different one.
Exercise: Recorded pIC50 for Cc1nc(-c2ccccn2)nc(NC[C@H](NCCCN2CCN(CCO)CC2)c2ccccc2)c1Cl with Methionine aminopeptidase 2 (Homo sapiens, UniProt P50579), please?
Key: 4.00

###

IC50, Methionine aminopeptidase 2 (Homo sapiens, UniProt P50579): measured values

Observe how each entry below is paired with its result.
Cc1nc(-c2cccc(Cl)n2)nc(NC[C@H](NC(=O)CCCN2CCNCC2)c2ccccc2)c1Cl :: > 30 µM
Cc1nc(-c2ccc(Cl)cn2)nc(NCC(CCCCCc2ccccc2)c2ccccc2)c1Cl (racemic) :: > 200 µM

Exercise: What value of IC50 has been recorded for this entry: Cc1nc(-c2ccc(Cl)cn2)nc(NC[C@H](NC(=O)CCCCCc2ccccc2)c2ccccc2)c1Cl
Key: > 30 µM
